Experiment: plasma levels during continuous intravenous infusion
Format: in vivo, rat
Conditions: male, Sprague Dawley, rat, plasma, intravenous; 0.1 mg/kg/min infusion, 20 min after start
measurement.name: concentration at 20 min (nM)
Give bare numbers, in nM.

Report measured concentration at 20 min; entry is COc1ccc2c(=O)n(C)c(CN(C)C)c(-c3ccccc3)c2c1.Cl [compound 1, hydrochloride]
2800

* * *

Assay: plasma levels during continuous intravenous infusion
Format: in vivo, rat
Conditions: male, Sprague Dawley, rat, plasma, intravenous; 0.1 mg/kg/min infusion, 10 min after start
measurement.name: concentration at 10 min (µM)
Numbers only, in µM.

Report measured concentration at 10 min; entry is COc1ccc2c(=O)n(C)c(CN(C)C)c(-c3ccccc3)c2c1.Cl [compound 1, hydrochloride]
3.4

* * *

Experiment: plasma levels during continuous intravenous infusion
Format: in vivo, rat
Conditions: male, Sprague Dawley, rat, plasma, intravenous; 0.2 mg/kg/min infusion, 20 min after start
measurement.name: concentration at 20 min (µM)
Give bare numbers, in µM.

Report measured concentration at 20 min; entry is COc1ccc2c(=O)n(C)c(CN(C)C)c(-c3ccccc3)c2c1.Cl [compound 1, hydrochloride]
5.5

* * *

Test: plasma levels during continuous intravenous infusion
Assay type: in vivo, rat
Conditions: male, Sprague Dawley, rat, plasma, intravenous; 0.2 mg/kg/min infusion, 10 min after start
measurement.name: concentration at 10 min (µM)
Give bare numbers, in µM.

Report measured concentration at 10 min; entry is COc1ccc2c(=O)n(C)c(CN(C)C)c(-c3ccccc3)c2c1.Cl [compound 1, hydrochloride]
6.3
